study-target: HIV-1 92BR020 Env (clade B pseudovirus) (HIV-1)
method-description: cell-based or functional assay
quantity-name: IC50 (µg/mL), pseudovirus neutralization

Problem: What does the data say about its IC50 (µg/mL), pseudovirus neutralization? Entry: 1496_C09 (PG9) (TCN-109) (antibody, V domains shown) VH: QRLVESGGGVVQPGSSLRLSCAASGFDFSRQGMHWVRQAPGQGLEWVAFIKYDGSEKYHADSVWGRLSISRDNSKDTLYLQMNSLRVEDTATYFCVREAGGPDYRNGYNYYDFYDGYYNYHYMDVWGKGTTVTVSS VL: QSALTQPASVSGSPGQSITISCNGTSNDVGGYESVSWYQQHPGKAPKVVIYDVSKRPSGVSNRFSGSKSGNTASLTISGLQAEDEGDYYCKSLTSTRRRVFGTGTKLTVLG
Result: > 50 µg/mL

Problem: So what does the record say about IC50 (µg/mL), pseudovirus neutralization for 1456_P20 (PG20) (antibody, human IgG1, kappa, V domains shown) VH: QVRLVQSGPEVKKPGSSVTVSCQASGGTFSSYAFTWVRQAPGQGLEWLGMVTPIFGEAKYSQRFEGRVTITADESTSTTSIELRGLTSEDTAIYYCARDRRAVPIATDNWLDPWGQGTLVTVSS VL: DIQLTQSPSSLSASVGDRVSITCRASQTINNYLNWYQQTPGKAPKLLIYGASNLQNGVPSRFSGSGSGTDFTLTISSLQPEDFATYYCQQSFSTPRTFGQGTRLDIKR ?
Result: > 50 µg/mL

Problem: Bench note: what IC50 (µg/mL), pseudovirus neutralization did 1460_G14 (PGG14) (antibody, human IgG1, kappa, V domains shown) VH: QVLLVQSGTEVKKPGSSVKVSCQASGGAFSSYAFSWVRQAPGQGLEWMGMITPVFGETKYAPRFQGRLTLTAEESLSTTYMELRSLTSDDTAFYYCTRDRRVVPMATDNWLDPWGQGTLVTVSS VL: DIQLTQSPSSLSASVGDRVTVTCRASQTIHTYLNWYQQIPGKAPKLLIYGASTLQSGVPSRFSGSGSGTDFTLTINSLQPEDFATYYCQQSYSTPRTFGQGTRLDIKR show?
Result: > 50 µg/mL
